# Test system: NCI-H460 lung
# measurement-description: NCI tumour cell line growth inhibition, 48 h; in the data active = GI50 below about 0.43 µM; inactive = the rest
Outcomes: active, inactive

molecule	category-label
CN(C)CCCn1c2c(c3ccncc3c1=O)C(=O)c1ccccc1-2	inactive
COc1ccc(-c2nccn2-c2cc(OC)c(OC)c(OC)c2)cc1	inactive
CCCCc1ccc(C(N)=O)nc1	inactive
COc1ccc(C(=O)CC(Cl)=C(Cl)Cl)cc1	inactive
CC1SC(c2cccc(Oc3ccccc3)c2)N(CCc2cccs2)C1=O (centres undefined)	inactive
COc1c(C)cnc(Cn2cnc3c(Cl)nc(N)nc32)c1C	active
COc1ccc2c(c1)CCC1C2CCC2(C)C1CC[C@@]2(O)CNC(=O)/C=C/c1ccc(O)c(O)c1 (some centres undefined)	inactive
Oc1c(Br)cc(Br)c2cccnc12	inactive
COc1ccc(C2CC(c3ccc(OC)c(OC)c3)=NN2C(=O)c2cc(OC)c(OC)c(OC)c2)cc1 (centres undefined)	inactive

The reported numbers originate from PubChem BioAssay (NCI).
